- test: soluble on expression in E. coli; label from the status in PepcDB or PDB records

ordered.residues	soluble on expression in E. coli
MAVVGYISYDNRDTFMNAKDVLSTEIEAVNGKADTKESKECEDTQASDEVALETDSTEEILNAGETVLTSASTESEECVAQVKLGREQVRSKNKEALQKIIDDAGVSEAEKKSAVDAMVKLTENAQMEEDAQMMLEAKGFKNAVVSLSDECCDVIVGKDDVTDEKRAQIEDIIKRKTNIGASNIVISTMD	not soluble
MGSDKIHHHHHHMEKSSIYGLTWTNLTEWLEAHGQKKFRATQVWDWLYRKRVKTFEEMSNVPKETIELLTANFVMNTLEEQVVQESTDGTTKYLFKLSDGNLIETVMMKQEYGLSVCVTTQVGCNIGCTFCASGLLKKSRDLTAGEIVEQIMNVQHYLDGRNLEERVSHVVVMGIGEPFDNYDNVMDFLRVINHDKGLAIGARHITVSTSGLAPRIIDFANEDFQVNLAISLHAPNNELRTSIMRINKTYSIEKLMEAIHYYVNKTNRRITFEYIMLKGVNDHKKEALELAALLGEHRHLAYVNLIPYNPVDEHIDYERSTKEDVLAFYDTLKKNGINCVIRREHGTDIDAACGQLRSKQIKRVGVRERMKQKQAAAEE	not soluble
MKSAIPSLMVQGTTSDAGKSVLVAGLCRVLARKGINVAPFKPQNMALNSAVTKDGGEIGRAQAVQAQACNIEPTVHMNPVLIKPNSDTGAQIILQGKALSNMDAASFHDYKKVAMNTVLDSFSKLTKEFDSIMIEGAGSPAEINLREGDIANMGFAEAADVPVIIVADIDRGGVFAHLYGTLALLSESEQTRVKGFVINRFRGDIRLLQSGLDWLEEKTGKPVLGVLPYLHGLNLEAEDAITAQQELNSEVKLNVVVPVLTRISNHTDFDVLRLNPDINLSYVGKGEKI	not soluble

----------
- test: soluble on expression in E. coli; label from the status in PepcDB or PDB records

ordered.residues	soluble on expression in E. coli
GPTTPVPVSGSLEVKVNDWGSGAEYDVTLNLDGQYDWTVKVKLAPGATVGSFWSANKQEGNGYVIFTPVSWNKGPTATFGFIVNGPQGDKVEEITLEINGQVI	soluble
MNNIDQLYTETKSMLSHIQNTPESDELLKQIEDFVATRSELIQEISLPLSEEERKQMKLILTWDQLIVKEMERLKQSIATELQQMKRKRVMHTTYLNPYNNITIDGTYYDKRKLEHHHHHH	soluble
SLKGRWVKYLLMGTVVAMLAACSSKPTDRGQQYKDGKFTQPFSLVNQPDAVGAPINAGDFAEQINHIRNSSPRLYGNQSNVYNAVQEWLRAGGDTRNMRQFGIDAWQMEGADNYGNVQFTGYYTPVIQARHTRQGEFQYPIYRMPPKRGRLPSRAEIYAGALSDKYILAYSNSLMDNFIMDVQGSGYIDFGDGSPLNFFSYAGKNGHAYRSIGKVLIDRGEVKKEDMSMQAIRHWGETHSEAEVRELLEQNPSFVFFKPQSFAPVKGASAVPLVGRASVASDRSIIPPGTTLLAEVPLLDNNGKFNGQYELRLMVALDVGGAIKGQHFDIYQGIGPEAGHRAGWYNHYGRVWVLKTAPGAGNVFSG	not soluble
VRQKGIDIIFMLDISNSMLARDTAPDRLTHAKTELLQISRRLGDGRKALLLFAGTPVVQCPLTDDEEDFEILLDMAAPELITTQGTDYRRAFDAALKLTNSGGELSSNETVLVLASDGEDHGNDLGDIATAMKTRGVHLHVIGVGGVQPVPIPMQGGPKRDQQGKIVLTSFKPEPLASLIKTAKGKFYYSRPDAPVHDAVADDIAAEAAEA	not soluble

----------
- test: soluble on expression in E. coli; label from the status in PepcDB or PDB records

ordered.residues	soluble on expression in E. coli
GMKRVLLLFDVDGTLTPPRLCQTDEMRALIKRARGAGFCVGTVGGSDFAKQVEQLGRDVLTQFDYVFAENGLLAYRNGLEIHRQSLLNALGNDRIVKFVKKTLRLIADLDIPVQRGTFVEYRNGMINVSPIGRNCSQAERDEFEVYDNEHRVRASLIAELENSFPDFGLKYSIGGQISFDVFPVGWDKTYCLQFVEDDFEEIHFFGDKTQEGGNDYEIYTDKRTIGHKVTSYKDTIAEVEKIIAMK	soluble
MKSRTRWLTSEELVTLFEAMRQAPGFSVENGLSIKLLLLLAVRKGELIGARWSEFDLDKAVWYLPAERTKTESAIDIPLPPIAVEWLRELQRLAGVSKWVLPARKMQDRMIPHIAESTLSVALAKIKHGLEPFTIHDLRRTARTHFEALGVAPHIAERCLNHKIKGIEGIYNRHDYFEERKAALEAWAGLLLQIERGEADKVVPIRRAVATKQLEHHHHHH	not soluble
MASGTASMQRPSIEKEPYYHGFLPREDVKTVLKNNGDFVIRISEPQAGSPRSNILSVMHCVPPMEEEIKHYVIKTKGDKIFIEKVSFLSIPEMVEWHLTKKESVQKDVFLIKAISRQAWELDHDNIEPLKKLGEGAFGEVMMGTMKFRKGGKSVQVAIKQAKLSNLTKEQIKEFMGEARVMRSLSHPHVVRFYGVPRRRVNVALCRSLNEFLAKCHRKLRCATPFFVCMSVNWLSVLNELRVFLE	not soluble
MPSIRLADLAQQLDAELHGDGDIVITGVASMQSAQTGHITFMVNPKYREHLGLCQASAVVMTQDDLPFAKSAALVVKNPYLTYARMAQILDTTPQPAQNIAPSAVIDATAKLGNNVSIGANAVIESGVELGDNVIIGAGCFVGKNSKIGAGSRLWANVTIYHEIQIGQNCLIQSGTVVGADGFGYANDRGNWVKIPQIGRVIIGDRVEIGACTTIDRGALDDTVIGNGVIIDNQCQIAHNVVIGDNTAVAGGVIMAGSLKIGRYCMIGGASVINGHMEICDKVTVTGMGMVMRPITEPGVYSSGIPLQPNKVWRKTAALVMNIDDMSKRLKSLERKVNQQD	not soluble
MSLGVEENPKLPKSVQRHLEPDERVLFAIKKKISIEKPKWLLVTDRRIIYLDEKVLGRYDFKAIPYQKLEQVVVKLGIMSSEFIIEGEENITLKLGWMDKEEARKAINAIKDALNAIAVEPVSIDVNKGLTSETWVLKKPREFVTRTMPAYQPAQVREEKEDPLEKLKKLKELYDMGVISQEEYEEKRKKLLEEIEGHHHHHH	soluble
MKVSTKDKIIESAVMLFNQKGFSGTSVREIAKSADVNVAHISYYFKGKGGLMEHLVSEFYEGYSKTLETAASNISTQSTQEQLLQLVFDILSYQHNHRQLTRFVYREVTIDSTLIREIMSTYLMKEKYIFQLIIEEGEKQREYLTLPLPHFILQLKSLLMMPYLQPQYISEVLYMQPHEPYFYKMYFEEIKIWIRSVFRTGDVALTN	not soluble

----------
- test: soluble on expression in E. coli; label from the status in PepcDB or PDB records

ordered.residues	soluble on expression in E. coli
MGPVFVVGQIDEMVPHPDSDHLNICQVNIGDKKVQIVAGAPNASPGLKTIVALPGAMMPSGALIFPGKLRGEDSYGMMCSPRELALPNAPQKRGIIELDDSAVVGEALEHHHHHH	not soluble
MSMNRQEISDLCVKSLEGRMVGTEAQNIENGNAFYRYFFTNFPDLRVYFKGAEKYTADDVKKSERFDKQGQRILLACHLLANVYTNEEVFKGYVRETINRHRIYKMDPALWMAFFTVFTGYLESVGSLNDQQKAAWMALGKEFNAESQTHLKNSNLPHV	soluble
MATFEEVSVLGFEEFDKAVKEHESKTIFAYFSGSKDTEGKSWCPDCVEAEPVIREGLKHVTEDCVFIYCQVGDKPYWKDPNNDFRQKLKITAVPTLLKYGTPQKLVESECCQSSLVEMIFSED	soluble
MGSDKIHHHHHHMHEDKNDIFESIDTEDFDNKTEEECLELVRKNGLNLIYIKNQTEEICLEAVRQNCNAIKCVQNQTEKICIEAVKQDWRMLEFVEEPTEEICMLAINQDGTALKYIENQTEELCLRAVEKNGAALEYVKEQTEEICIEAVRNSEFGLARVKNQTEKICMEAVKHCSYNLKWVENQTEEICMEAVRQNGLDLKFVKNQTETICLRAVRQNGMALEFVKEQTVGICLKAVRQYGMALKFVKEQTEEICTEAIKQDKRALSFVKGDKEKYKALYDNNEPFAKRYVRNVIEKENRALIKKGEENAKIKIAGKLYDRGMSFEDISDIVEIEISKLKVSLGVF	not soluble

----------
- test: soluble on expression in E. coli; label from the status in PepcDB or PDB records

ordered.residues	soluble on expression in E. coli
MGSDKIHHHHHHMAPRKVIITCAVTGSVHTPSMSPYLPVTPDQIASDAIAAAEAGASILHLHARDPKDGRPTADPDVFMQFLPRIKQATDAVINITTGGSSLMTLDQRLAAPLRAEPEMCSLNMGSMNFALFPMLDKPREWQHEWEPKLLEATRDTIFKNTFADMEGVLERLGKGCGTRFEFECYDVGHLYSLAHFRDRGLVSGPLFIQFVLGILGGIGADPDNLVHMKRIADKLFGDSYQFSVLAAGRQQMPLISIAAAMGGNVRVGLEDSLYDGRQLAKSNADQVRRIRGILDGLSLEVATPAEAREMLALKGGDRVAF	not soluble
MAHHHHHHMNTHVISVGSRWVHHEVTQALRQRRGVRVEVNEELQHCDFASRASSVLYCDAHSAEMQRDQASLVLRLQEARQRCGTQPVILMVRMDSDNEVSLERLSWLNLECGVAQQCGLILVWSLDDAVQYLASLAAYAVTSLEFTGAARPYVGDAPLPVLVDALTQTPQVVTRNDVVRIANRKTSVADALMSEASEWEGIAGLDARKRLVCSTSFAHHLCPRSSASTPLYRPPAAAVSLPLIKPQNLISRSQQESPQRGRQRPLASTRP	not soluble
